# assay-protocol: A CellTox Green Cytotoxicity Assay to monitor cytotoxicity in HepG2 cells - 32 hour (AID 1224883); note: nearly all actives have a fitted effect of over 50% in size
# condition-notes: CellTox Green fluorescence; series mostly up to 76.8 µM
Inconclusive results are not listed. Activity calls are given as the source filed them. Calls come from the whole dose curve; as a rule, active = well fitted activation curve with a large enough effect in the repeat runs; inconclusive = weak or mixed curves; inactive = flat fitted curve, though single readings scatter.
Select the matching outcome among label 1 for active, label 0 for inactive

Previously resolved entries follow.
>>> print(df.to_string())
                                   molecule  category_label
0                c1coc(-c2nc3ccccc3[nH]2)c1         label 0
1                           CCCCc1ccc(O)cc1         label 1
2  CC(C)(C)NCC(O)c1cc(Cl)c(N)c(Cl)c1 (stereo not given)         label 0
3                                    N#CCBr         label 0

Recorded call for ClC(Br)Br ?
label 0

Fill in: this test's call for c1ccc(N2CCNCC2)cc1 is ___
label 0

What is the recorded call for this molecule in the test? COC(=O)c1ccccc1S(=O)(=O)NC(=O)N(C)c1nc(C)nc(OC)n1
label 0

Called result for NC(=O)O
label 0

Check the results log: what was the call for CCC(Cl)[N+](=O)[O-] (stereo not given) ?
label 0

Would you mind telling me which call this test gave O=NN1CCN(N=O)CC1 ?
label 0

So what was the verdict on CSc1ccc(C(=O)C(C)(C)N2CCOCC2)cc1 in this test?
label 0

State the result this test recorded for C=C(C)[C@@H]1CC=C(C=O)CC1 .
label 0

What outcome does the record of this test show for CC1=NNC(=O)N(/N=C/c2cccnc2)C1 ?
label 0

Which result was noted for this molecule in the test: O=[N+]([O-])c1cccc2cccnc12
label 0

Fill in: this test's call for COc1cc(OC)nc(Sc2cccc(Cl)c2C(=O)O)n1 is ___
label 0
